Recorded binding signal values for a group of sequences are listed next.
# target-or-system: GST-Rok (full length) (Bacillus subtilis subsp. subtilis str. …, UniProt O34857 1-191)
# Sequence: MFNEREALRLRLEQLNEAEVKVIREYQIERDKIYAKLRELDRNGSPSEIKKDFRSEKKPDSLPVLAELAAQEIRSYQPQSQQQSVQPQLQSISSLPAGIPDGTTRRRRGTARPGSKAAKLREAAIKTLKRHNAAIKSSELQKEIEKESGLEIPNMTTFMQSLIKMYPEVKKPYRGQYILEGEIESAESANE
# assay-procedure: protein binding microarray; high values mean tight binding
# condition-set: protein: recombinant; tags: GST (pTH5325, pDEST15-Magic modified); dsDNA, one strand shown
In all, about 33,000 sequences were measured (“e-score”: median about -0.037, highest 2% from about 0.34 on). For the sample, the highest values were picked, then their nearest neighbours and some sequences at random.
Field: numeric (E-score). Do not append units.

CTAATGAA = 0.0765

Given the entry `AAACATCT` , report its measured binding signal.
0.0882

Field request: binding signal | item: `GATTGTAC`
0.317

###

# target-or-system: GST-Rok (full length) (Bacillus subtilis subsp. subtilis str. …, UniProt O34857 1-191)
# Sequence: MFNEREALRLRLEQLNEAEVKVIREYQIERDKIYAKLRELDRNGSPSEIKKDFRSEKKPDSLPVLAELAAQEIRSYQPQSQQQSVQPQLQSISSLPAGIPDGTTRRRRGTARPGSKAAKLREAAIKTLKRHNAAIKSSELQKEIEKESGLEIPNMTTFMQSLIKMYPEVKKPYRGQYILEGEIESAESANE
# assay-procedure: protein binding microarray; high values mean tight binding
# condition-set: protein: recombinant; tags: GST (pTH5325, pDEST15-Magic modified); dsDNA, one strand shown
The full ranking holds about 33,000 sequences; the median of “e-score” is about -0.037, and the highest 2% start at about 0.34. Shown is part of a subset that was picked to be rich in the highest values.
parameter: binding signal (E-score)
Value expressed in E-score; do not type the unit.

In the examples that follow, each entry is paired with its recorded binding signal.
ATACATGA = 0.294
AACAACTA = 0.292
AGGCAACG = -0.102
CTGCGAGA = -0.11
GTGGGTAA = 0.142
GTAATGTA = 0.364
TACAACTA = 0.368
AATGGGTA = 0.289

Shifting focus to the sequence that follows.
Can you share its binding signal? I mean this sequence: `CTATGTCA`
0.225

###

# target-or-system: GST-Rok (full length) (Bacillus subtilis subsp. subtilis str. …, UniProt O34857 1-191)
# Sequence: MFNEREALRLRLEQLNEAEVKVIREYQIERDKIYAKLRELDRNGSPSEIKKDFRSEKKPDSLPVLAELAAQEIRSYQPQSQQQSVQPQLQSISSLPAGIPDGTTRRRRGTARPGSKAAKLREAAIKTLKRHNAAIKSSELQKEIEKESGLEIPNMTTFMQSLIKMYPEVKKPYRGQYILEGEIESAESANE
# assay-procedure: protein binding microarray; high values mean tight binding
# condition-set: protein: recombinant; tags: GST (pTH5325, pDEST15-Magic modified); dsDNA, one strand shown
In all, about 33,000 sequences were measured (“e-score”: median about -0.037, highest 2% from about 0.34 on). This excerpt belongs to a sample that is enriched for the highest values.
parameter: binding signal (E-score)
Please respond with the number in E-score and leave the unit unwritten.

Some sequences with recorded binding signal:
AGATTCGG = 0.0606
CACATCTA = 0.268
TACATGTA = 0.339
AACATACT = 0.136
GTCGCTAA = 0.16

Please give the measured binding signal for this sequence: `AACATACA`
0.355

Recorded binding signal for `GTATTGTA` , please?
0.238

binding signal for `ACCATGTG` ?
-0.159

Item under review: `AAGTAACT` . Reported binding signal?
0.225

Please report the recorded binding signal for `CCCATGTA` .
0.12

###

Items are presented alongside their recorded binding signal.
# target-or-system: GST-Rok (full length) (Bacillus subtilis subsp. subtilis str. …, UniProt O34857 1-191)
# Sequence: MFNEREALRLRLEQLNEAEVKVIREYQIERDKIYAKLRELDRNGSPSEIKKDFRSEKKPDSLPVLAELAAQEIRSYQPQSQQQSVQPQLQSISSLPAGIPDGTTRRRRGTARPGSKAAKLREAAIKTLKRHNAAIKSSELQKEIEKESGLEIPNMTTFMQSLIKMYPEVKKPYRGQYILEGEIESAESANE
# assay-procedure: protein binding microarray; high values mean tight binding
# condition-set: protein: recombinant; tags: GST (pTH5325, pDEST15-Magic modified); dsDNA, one strand shown
The full ranking holds about 33,000 sequences; the median of “e-score” is about -0.037, and the highest 2% start at about 0.34. This is one part of a sample in which the highest values are shown more often than they occur.

Illustrative cases are given below, each with its answer.
ATGCATGG = 0.0449 E-score
AACTACTT = 0.418 E-score
AGTGATAG = 0.377 E-score
CGGTATAA = 0.28 E-score
GGAAGGTA = 0.0109 E-score

Now consider a different sequence.
What reported binding signal corresponds to `CGCTACTA` on GST-Rok (full length) (Bacillus subtilis subsp. subtilis str. …, UniProt O34857 1-191)?
0.28 E-score

###

# target-or-system: GST-Rok (full length) (Bacillus subtilis subsp. subtilis str. …, UniProt O34857 1-191)
# Sequence: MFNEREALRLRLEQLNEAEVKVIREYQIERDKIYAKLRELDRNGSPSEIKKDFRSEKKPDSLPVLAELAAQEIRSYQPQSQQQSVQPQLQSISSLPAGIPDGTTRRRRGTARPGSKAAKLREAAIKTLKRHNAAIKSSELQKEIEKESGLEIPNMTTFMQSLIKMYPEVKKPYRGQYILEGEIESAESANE
# assay-procedure: protein binding microarray; high values mean tight binding
# condition-set: protein: recombinant; tags: GST (pTH5325, pDEST15-Magic modified); dsDNA, one strand shown
Over roughly 33,000 sequences, “e-score” has its median near -0.037; the highest 2% begin near 0.34. The full list was thinned out, with the highest values kept by preference.
Threshold check on binding signal: at or above 0.3 E-score gives MET, strictly below gives NOT MET.

Reference set, count: 8
AGCTACCC = NOT MET
AGTAATAC = NOT MET
GTACTTAA = NOT MET
CACTTTAG = NOT MET
ACTTATAA = NOT MET
AATATAGC = MET
AGTAATAT = MET
CTACTGAA = NOT MET

Then there is this sequence:
Reported binding signal at or above 0.3 E-score? `ATGTAAAT`
MET

###

# target-or-system: GST-Rok (full length) (Bacillus subtilis subsp. subtilis str. …, UniProt O34857 1-191)
# Sequence: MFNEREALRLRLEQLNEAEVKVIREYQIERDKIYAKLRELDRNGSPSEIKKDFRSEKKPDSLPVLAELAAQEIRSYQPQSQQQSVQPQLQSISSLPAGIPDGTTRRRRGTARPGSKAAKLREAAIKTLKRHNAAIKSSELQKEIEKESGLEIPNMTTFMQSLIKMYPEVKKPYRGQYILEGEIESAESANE
# assay-procedure: protein binding microarray; high values mean tight binding
# condition-set: protein: recombinant; tags: GST (pTH5325, pDEST15-Magic modified); dsDNA, one strand shown
Whole data set: some 33,000 sequences, median “e-score” near -0.037, cut for the highest 2% near 0.34. For the sample, the highest values were picked, then their nearest neighbours and some sequences at random.
parameter: binding signal (E-score)
Write it as a number; the unit E-score goes unstated.

ATTAATAC = 0.353
AACAACAC = -0.114
ACTAGTAC = 0.41

Tell me the measured binding signal of `ACTAGTCT` , please.
0.248

binding signal for `AGGTGAGC` ?
-0.0616

GET /values?readout=binding signal&item= `ACTAGTGG`
0.00757

###

# target-or-system: GST-Rok (full length) (Bacillus subtilis subsp. subtilis str. …, UniProt O34857 1-191)
# Sequence: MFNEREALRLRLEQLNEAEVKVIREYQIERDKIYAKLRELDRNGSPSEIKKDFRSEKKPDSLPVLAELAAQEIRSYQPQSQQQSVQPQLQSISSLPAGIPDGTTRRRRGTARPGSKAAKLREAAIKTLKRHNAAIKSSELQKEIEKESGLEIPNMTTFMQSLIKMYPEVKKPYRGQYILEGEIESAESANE
# assay-procedure: protein binding microarray; Rok is a gene silencer of Bacillus subtilis; high values mean tight binding
# condition-set: protein: recombinant; tags: GST (pTH5325, pDEST15-Magic modified); dsDNA, one strand shown
Over roughly 33,000 sequences, “e-score” has its median near -0.037; the highest 2% begin near 0.34. The list comes from a sample in which the highest values are over-represented; it also holds close analogues and randomly drawn sequences.
parameter: binding signal (E-score)
Could you give me the number in E-score? Just the number is fine.

Consider the reported binding signal for these sequences:
GGATAGAA = 0.171
ATACCATC = 0.198
ATTACTGC = 0.138

Return reported binding signal; argument: `CTACCATC`
0.396

Fill blank: measured binding signal of the sequence `AATATGCA` is ____.
0.304

Query: binding signal; subject: `TCAAGCAA`
-0.0617

# binding signal lookup, item `ATACCATA`
0.286

Bench note: what binding signal did `ATTGTTCA` show?
0.126
